Attribution: paper PMC11267536

- TARGET_OF_ASSAY: human-mouse chimeric mAb 2C7 (mouse | human | mouse VL, human constant region)
- TEST: ITC; 20 °C, PBS pH 7.4; 30 uM mAb in the cell, 1.67 mM CP2 in the syringe, 19 injections of 2 uL; one-site model
Bridges are numbered along the chain shown (N, C = ends).
MEASURED_PARAMETER: Kd (µM)
One number for each entry, in µM.

Data request: Given the binder GPIPVLDENGLFAPGPCK-OH (bridge N-17; not fully specified (N-terminus, bridges)) [cyclic peptide 2 (CP2)] , what is its reported Kd?
Data returned: 23
